Molecular target: Amine oxidase [flavin-containing] B (Homo sapiens)
Assay: Inhibition of human recombinant MAO-B using tyramine as substrate incubated for 20 mins by fluorometric assay
pIC50: −log10 of the molar value.
reported.endpoint: pIC50

COc1ccc(-c2cc(-c3csc4ccccc4c3=O)[nH]n2)cc1; 7.73
O=C1C(c2cc(-c3cccc(Cl)c3)no2)=CS(=O)(=O)c2ccccc21; 7.65

a = O=C1C(c2cc(-c3ccc(F)cc3)no2)=CS(=O)(=O)c2ccccc21
b = O=c1c(-c2cc(-c3cccc(C(F)(F)F)c3)no2)csc2ccccc12
Please indicate which entry, a or b , has the lower recorded pIC50 value. // return label of chosen record
a
(a: 6.83, b: 7.45)

---

Target: Amine oxidase [flavin-containing] B (Homo sapiens, UniProt P27338)
Sequence (P27338 whole entry): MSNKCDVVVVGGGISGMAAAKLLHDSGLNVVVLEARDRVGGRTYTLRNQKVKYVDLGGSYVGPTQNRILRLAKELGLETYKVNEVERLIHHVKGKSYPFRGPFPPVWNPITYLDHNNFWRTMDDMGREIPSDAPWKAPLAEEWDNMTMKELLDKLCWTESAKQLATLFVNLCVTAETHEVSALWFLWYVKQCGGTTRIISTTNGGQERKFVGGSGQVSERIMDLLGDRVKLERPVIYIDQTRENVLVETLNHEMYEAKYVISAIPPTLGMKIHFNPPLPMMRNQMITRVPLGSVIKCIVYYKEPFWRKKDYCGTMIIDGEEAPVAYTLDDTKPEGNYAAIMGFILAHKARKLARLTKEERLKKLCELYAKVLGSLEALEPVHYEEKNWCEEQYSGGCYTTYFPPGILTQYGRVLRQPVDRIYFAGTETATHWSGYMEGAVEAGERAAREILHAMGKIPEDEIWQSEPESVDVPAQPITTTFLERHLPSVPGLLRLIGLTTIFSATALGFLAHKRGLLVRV
Test: Inhibition of human recombinant MAO-B using tyramine as substrate incubated for 20 mins by fluorometric assay
pIC50: −log10 of the molar value.
reported.endpoint: pIC50

O=C1C(c2cc(-c3ccc(Cl)cc3)no2)=CS(=O)(=O)c2ccccc21; 8.47
O=C1C(c2cc(-c3cccc(F)c3)no2)=CS(=O)(=O)c2ccccc21; 6.36
Cc1ccccc1-c1cc(C2=CS(=O)(=O)c3ccccc3C2=O)on1; 6.86
COc1ccc(-c2cc(C3=CS(=O)(=O)c4ccccc4C3=O)on2)cc1; 8.47
Cc1ccc(-c2cc(-c3csc4ccccc4c3=O)on2)cc1; 7.21
O=c1c(-c2cc(-c3ccc(C(F)(F)F)cc3)no2)csc2ccccc12; 7.95

A = Cc1ccccc1-c1cc(-c2csc3ccccc3c2=O)on1
B = O=C1C(c2cc(-c3ccc(C(F)(F)F)cc3)no2)=CS(=O)(=O)c2ccccc21
C = COc1cccc(-c2cc(C3=CS(=O)(=O)c4ccccc4C3=O)on2)c1
D = O=C1C(c2cc(-c3ccccc3C(F)(F)F)no2)=CS(=O)(=O)c2ccccc21
Reorder the items by pIC50, least to greatest. I would appreciate it if you listed the labels in the requested order.
A, B, C, D

---

Molecular target: Amine oxidase [flavin-containing] B (Homo sapiens, UniProt P27338)
Test: Inhibition of human recombinant MAO-B using tyramine as substrate incubated for 20 mins by fluorometric assay
pIC50: −log10 of the molar value.
reported.endpoint: pIC50

Example molecules with recorded pIC50:
Cc1ccc(-c2cc(C3=CS(=O)(=O)c4ccccc4C3=O)on2)cc1; 7.57
Cc1cccc(-c2cc(C3=CS(=O)(=O)c4ccccc4C3=O)on2)c1; 7.01
O=C1C(c2cc(-c3ccccc3)no2)=CS(=O)(=O)c2ccccc21; 6.05

I = O=c1c(-c2cc(-c3ccccc3)no2)csc2ccccc12
II = O=C1C(c2cc(-c3cccc(C(F)(F)F)c3)no2)=CS(=O)(=O)c2ccccc21
III = Cc1cccc(-c2cc(-c3csc4ccccc4c3=O)on2)c1
Rank the items in ascending order with respect to pIC50. Dear reader, please state the labels in the requested order.
I, III, II
(I: 5.91, III: 6.28, II: 8.72)

---

Activity values for the compounds below.
Test system: SH-SY5Y
Assay: Cytotoxicity against differentiated human SH-SY5Y cells assessed as reduction in cell viability by measuring MTT reduction at 4 uM incubated for 24 hrs by MTT assay relative to control
Assay type: toxicity, cell-based

Field: example entries. Status: answers known.
O=C1C(c2cc(-c3ccc(Cl)cc3)no2)=CS(=O)(=O)c2ccccc21; < 90%
O=C1C(c2cc(-c3cccc(C(F)(F)F)c3)no2)=CS(=O)(=O)c2ccccc21; < 90%
O=C1C(c2cc(-c3ccccc3C(F)(F)F)no2)=CS(=O)(=O)c2ccccc21; < 90%
O=c1c(-c2cc(-c3ccccc3C(F)(F)F)no2)csc2ccccc12; < 90%

Given the entry COc1ccc(-c2cc(C3=CS(=O)(=O)c4ccccc4C3=O)on2)cc1 , report its measured Activity.
< 90%

---

Biological target: UniProtKB P21397
Sequence (P21397 whole entry): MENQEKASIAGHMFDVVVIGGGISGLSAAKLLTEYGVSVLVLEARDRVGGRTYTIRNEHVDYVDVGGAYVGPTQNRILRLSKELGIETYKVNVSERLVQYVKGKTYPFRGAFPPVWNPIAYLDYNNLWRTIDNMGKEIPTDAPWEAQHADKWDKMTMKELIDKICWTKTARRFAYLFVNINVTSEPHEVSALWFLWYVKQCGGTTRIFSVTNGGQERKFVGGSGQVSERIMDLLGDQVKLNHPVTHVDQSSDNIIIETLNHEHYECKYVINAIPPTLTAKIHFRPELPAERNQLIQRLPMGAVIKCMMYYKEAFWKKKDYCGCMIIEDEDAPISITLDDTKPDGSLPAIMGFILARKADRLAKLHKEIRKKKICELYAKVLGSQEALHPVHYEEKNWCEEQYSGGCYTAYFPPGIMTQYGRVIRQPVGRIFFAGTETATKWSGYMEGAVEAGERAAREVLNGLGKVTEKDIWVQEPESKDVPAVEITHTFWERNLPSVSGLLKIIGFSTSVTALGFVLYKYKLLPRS
Assay: Inhibition of human recombinant MAO-A using tyramine as substrate at 10 uM incubated for 20 mins by fluorometric assay relative to control
reported.endpoint: inhibition at 10 µM (%)

1 = O=C1C(c2cc(-c3ccc(C(F)(F)F)cc3)no2)=CS(=O)(=O)c2ccccc21
2 = O=C1C(c2cc(-c3cccc(C(F)(F)F)c3)no2)=CS(=O)(=O)c2ccccc21
3 = COc1cccc(-c2cc(C3=CS(=O)(=O)c4ccccc4C3=O)on2)c1
4 = O=C1C(c2cc(-c3ccccc3C(F)(F)F)no2)=CS(=O)(=O)c2ccccc21
I would appreciate it if you could sort these 4 compounds by inhibition at 10 µM, starting from the smallest number. Please reply with the labels ordered as requested. Many thanks.
3, 1, 4, 2

---

Target: Amine oxidase [flavin-containing] B (Homo sapiens, UniProt P27338)
Sequence (P27338 whole entry): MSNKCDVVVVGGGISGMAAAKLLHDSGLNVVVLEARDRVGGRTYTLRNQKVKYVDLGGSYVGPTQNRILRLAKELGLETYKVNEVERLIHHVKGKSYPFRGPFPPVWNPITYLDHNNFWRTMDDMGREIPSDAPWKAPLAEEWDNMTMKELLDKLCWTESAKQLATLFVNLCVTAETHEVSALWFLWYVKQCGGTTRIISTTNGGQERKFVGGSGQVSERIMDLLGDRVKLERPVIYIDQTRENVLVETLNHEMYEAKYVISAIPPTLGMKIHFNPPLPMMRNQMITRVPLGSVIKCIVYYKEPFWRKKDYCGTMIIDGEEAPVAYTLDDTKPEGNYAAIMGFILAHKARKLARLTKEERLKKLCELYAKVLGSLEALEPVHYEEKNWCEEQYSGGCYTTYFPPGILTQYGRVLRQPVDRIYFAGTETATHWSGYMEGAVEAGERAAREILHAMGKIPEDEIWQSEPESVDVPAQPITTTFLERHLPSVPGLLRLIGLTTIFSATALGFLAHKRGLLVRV
Assay: Inhibition of human MAO-B
reported.endpoint: IC50 (nM)
Give a bare numeral; the unit nM is implied.

I would be grateful if you could share the reported IC50 for CC(=O)c1ccc(OCc2ccccc2)cc1O .
7

---

Test: n-Octanol/water partition coefficient, logP of the compound at pH 7.4 by HPLC analysis
Format: physicochemical
reported.endpoint: logD

Some compounds with known logD results, for comparison:
O=C1C(c2cc(-c3ccc(F)cc3)no2)=CS(=O)(=O)c2ccccc21; 2.43
Cc1ccccc1-c1cc(-c2csc3ccccc3c2=O)on1; 3.99
O=C1C(c2cc(-c3ccccc3)no2)=CS(=O)(=O)c2ccccc21; 3.26
O=c1c(-c2cc(-c3ccc(C(F)(F)F)cc3)no2)csc2ccccc12; 2.55
O=C1C(c2cc(-c3cccc(C(F)(F)F)c3)no2)=CS(=O)(=O)c2ccccc21; 3.39
O=c1c(-c2cc(-c3cccc(C(F)(F)F)c3)no2)csc2ccccc12; 3.71

a = Cc1ccc(-c2cc(-c3csc4ccccc4c3=O)on2)cc1
b = O=C1C(c2cc(-c3ccc(Cl)cc3)no2)=CS(=O)(=O)c2ccccc21
Between a and b , whose measured logD reads higher? State the label of the item chosen.
a
(a: 3.2, b: 1.82)

P = O=C1C(c2cc(-c3cccc(F)c3)no2)=CS(=O)(=O)c2ccccc21
Q = O=c1c(-c2cc(-c3ccccc3)no2)csc2ccccc12
Would you kindly point out which of P and Q has the smaller logD figure? Indicate which entry you chose by stating its label.
P
